Test system: HPK1 pSLP76 (Ser376)
Assay: Cellular assay phospho-SLP-76 (Ser376)
Type: cell-based, human
Details: SLP76 Ser376 phosphorylation after αCD3/αCD28 stimulation; Jurkat (human) or EL-4 (mouse) cells, table does not say which; read-out: HPK1 pSLP76 IC50
pIC50: −log10 of the molar value.
Reported pIC50 values follow for various molecules

[
  {
    "smilesText": "COCCOc1ccc(-c2cc(C(N)=O)c3ncnc(N[C@H]4CCCNC4)c3n2)c(C#N)c1",
    "assayMetric": "pIC50",
    "result": "< 6.00"
  }
]

Record CC(C)(O)C(F)(F)Oc1ccc(-c2cc(C(N)=O)c3ncnc(N[C@H]4CCCNC4)c3n2)cc1 . Reported pIC50: 6.00 to 6.30
